Test: Oral bioavailability in Sprague-Dawley rat at 320 mg/kg
Type: ADME, organism-based
Settings: in vivo
readout: bioavailability (%)
Entry rule: numbers only, all in %.

Record Cc1nc(-c2ccc(Cl)cc2)nc(OCCCN2CCCCC2)c1Cl . Reported bioavailability: 75.1

* * *

Test: AUC (0 to 24 hrs) in Sprague-Dawley rat at 16 mg/kg, iv by HPLC/MS/MS analysis
Conditions: plasma
readout: AUC(0-t) at 24 h (ng·h/mL)
Entry rule: numbers only, all in ng·h/mL.

Record Cc1nc(-c2ccc(Cl)cc2)nc(OCCCN2CCCCC2)c1Cl . Reported AUC(0-t) at 24 h: 3300

* * *

Test: Tmax in Sprague-Dawley rat at 320 mg/kg, po by HPLC/MS/MS analysis
Assay type: ADME, organism-based
Set-up: dose 320 mg/kg, route oral
Details: in vivo
readout: Tmax (min)
Entry rule: numbers only, all in min.

Record Cc1nc(-c2ccc(Cl)cc2)nc(OCCCN2CCCCC2)c1Cl . Reported Tmax: 30

* * *

Target: Sigma non-opioid intracellular receptor 1 (Cavia porcellus, UniProt Q60492)
Sequence (Q60492 whole entry): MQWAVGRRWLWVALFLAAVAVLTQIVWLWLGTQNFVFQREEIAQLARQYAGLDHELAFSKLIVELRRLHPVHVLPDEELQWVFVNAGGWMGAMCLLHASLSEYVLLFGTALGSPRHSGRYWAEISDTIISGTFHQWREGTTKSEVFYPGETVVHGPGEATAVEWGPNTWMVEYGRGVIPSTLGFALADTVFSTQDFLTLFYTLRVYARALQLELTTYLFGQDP
Test: Displacement of [3H]-(+)-pentazocine from sigma-1 receptor in Dunkin Hartley guinea pig brain membranes after 180 mins by liquid scintillation counting analysis
pKi: −log10 of the molar value.
Rule: pKi of 7 or more gives rule met; anything lower gives rule not met.

# count of solved cases: 3
structure-smiles-string	qualitative-label
COc1cc(OCCCN2CCCCC2)nc(-c2ccccc2)n1	rule met
FC(F)(F)c1cc(OCCCN2CCCC2)nc(-c2ccccc2)n1	rule met
Cc1nc(C2CC2)nc(OCCCN2CCCCC2)c1Cl	rule met

Quick check: does Cc1cc(OCCCCCCN2CCOCC2)nc(-c2ccccc2)n1 have pKi greater than or equal to 7? rule not met

Quick check: does Cc1nc(-c2ccccc2)nc(OCCCN2CCCCC2)c1Cl have pKi greater than or equal to 7? rule met

Quick check: does CCCN(CCC)CCCOc1cc(C)nc(-c2ccccc2)n1 have pKi greater than or equal to 7? rule met

Quick check: does Cc1nc(C)c(Cl)c(OCCCN2CCCCC2)n1 have pKi greater than or equal to 7? rule met

Quick check: does Cc1nc(-c2ccc(C(F)(F)F)cc2)nc(OCCCN2CCCCC2)c1Cl have pKi greater than or equal to 7? rule met

Quick check: does CC(C)c1cc(OCCCN2CCCC2)nc(-c2ccccc2)n1 have pKi greater than or equal to 7? rule not met

Quick check: does c1ccc(-c2cc(OCCCN3CCCC3)nc(-c3ccccc3)n2)cc1 have pKi greater than or equal to 7? rule not met

* * *

Biological target: Sigma non-opioid intracellular receptor 1 (Cavia porcellus)
Test: Displacement of [3H]-(+)-pentazocine from sigma-1 receptor in Dunkin Hartley guinea pig brain membranes after 180 mins by liquid scintillation counting analysis
// log10 of Ki lookup, one value per entry
// stored as log10 of Ki expressed in µM

Sample records with log10 of Ki:
compound	log10 of Ki
Cc1nc(-c2ccccc2)nc(OCCCN2CCCCC2)c1C	-2.02
Cc1cc(OCC(O)CN2CCOCC2)nc(-c2ccccc2)n1 (configuration not stated)	-0.31
CCN1CCN(CCCOc2cc(C)nc(-c3ccccc3)n2)CC1	-1.51
Cc1cc(OCCCN2CC(C)CC(C)C2)nc(-c2ccccc2)n1 (configuration not stated)	-1.52
CCN(CC)CCCOc1cc(C)nc(-c2ccccc2)n1	-1.33
Cc1cc(OC/C=C/CN2CCOCC2)nc(-c2ccccc2)n1	-0.94

Record CCCc1cc(OCCCN2CCCC2)nc(-c2ccccc2)n1 . Reported log10 of Ki: -1.41

Record Cc1ncnc(OCCCN2CCCCC2)c1Cl . Reported log10 of Ki: -0.73

Record Cc1cc(OCCOCCN2CCOCC2)nc(-c2ccccc2)n1 . Reported log10 of Ki: -0.37

Record Cc1nc(-c2ccc(Cl)cc2)nc(OCCCN2CCCCC2)c1Cl . Reported log10 of Ki: -2.97

Record Cc1nc(-c2ccccc2)nc(OCCCN2CCCC2)c1C . Reported log10 of Ki: -1.94

Record CCc1cc(OCCCN2CCCC2)nc(-c2ccccc2)n1 . Reported log10 of Ki: -1.65
